Catalogue of variants with associated self-cleavage
B1: Twister Ribozyme (parent)
chain: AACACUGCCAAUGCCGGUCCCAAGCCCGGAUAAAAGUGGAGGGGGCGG

# Variants of: B1
# PROTOCOL DESCRIPTION: self-cleavage, relative activity (ratio to wild type); higher = more cleavage; co-transcriptional
Number, no unit, nothing else.

AACACUGCCAAUGCCGGUCCCAUGCCCGGAUAAAAGUGGAGGGUGCGG 0.484
AACACUGCCAAUGCCGGUCCCAAUCCCGGAUAAACGUGGAGGGGGCGG 0.133
AACACUGGCAAUGCCGGUCCCAACCCCGGAUAAAAGUGGAGGGGGCGG 0.993

Fill in: self-cleavage of AACACUGCCAACGCCGGUUCCAAGCCCGGAUAAAAGUGGAGGGGGCGG is ___
0.951

Fill in: self-cleavage of AACACUGCCAAUGCCGGUACCAAGCCCGUAUAAAAGUGGAGGGGGCGG is ___
0.207
